Values from paper PMC6753678

system: HepG2 cells; experiment: HepG2 cytotoxicity assay; conditions: HepG2 cytotoxicity listed with the Pb ODA data set (this manuscript)
readout-name: Pb ODA (this manuscript) HepG2 cytoxicity (µM)

* Cc1[nH]c(C)c(-c2ccc(OCCCc3ccccn3)cc2)c(=O)c1Br.Cl [TCMDC-135795] | 0.17
* CNC(=O)c1ccccc1Nc1nc(Nc2ccc(CCN3CCN(C)CC3)cc2)ncc1Cl.Cl [TCMDC-133800] | 2.26
* Cc1[nH]c(C)c(-c2ccc(OCc3ccccc3)cc2)c(=O)c1Br [TCMDC-138901] | 100.00
* COc1ccc(Cc2c(N)nc3nc(N)nc(N)c3c2C)cc1.Cl [TCMDC-138061] | 0.055
* COc1ccc2ncc(F)c(CCN3CCC(NCc4ccc5c(c4)CCO5)CC3)c2n1.Cl [TCMDC-135491] | 31.62
* Br.CC1(C)NC(N)=NC(=N)N1OCCCOc1ccccc1Cl [TCMDC-131739] | 0.001
* COc1cccc(CNCC(C)(C)c2nc(-c3ccc(Cl)c(O)c3)c(-c3ccncc3)[nH]2)c1.Cl [TCMDC-140687] | 5.01
* CNC(=O)c1ccccc1Nc1nc(Nc2ccc(N3CCOCC3)cc2)ncc1Cl.Cl [TCMDC-134144] | 3.63
* Cc1nc(C)c(-c2ccc(Oc3cc(Cl)cc(Cl)c3)cc2)c(O)c1Cl [TCMDC-137391] | 0.0017
* CS(=O)(=O)Cc1cccc(Nc2ncc(Cl)c(Nc3cccnc3C(N)=O)n2)c1.Cl [TCMDC-134166] | 4.79
* COc1ccc2nc3cc(Cl)ccc3c(NCCO)c2c1.Cl [TCMDC-124272] | 15.67
